Some binders, each annotated with its measured Binding to heavy chain (OD).
# Target or system: T1, recombinant heavy chain Protein S (human, UniProt P07225 42-296)
# T1 construct: Fragment of Protein S spanning amino acids 42-296, expressed and purified from HEK293 cells; also called Protein S heavy chain; heavy chain of Protein S
# T1 sequence: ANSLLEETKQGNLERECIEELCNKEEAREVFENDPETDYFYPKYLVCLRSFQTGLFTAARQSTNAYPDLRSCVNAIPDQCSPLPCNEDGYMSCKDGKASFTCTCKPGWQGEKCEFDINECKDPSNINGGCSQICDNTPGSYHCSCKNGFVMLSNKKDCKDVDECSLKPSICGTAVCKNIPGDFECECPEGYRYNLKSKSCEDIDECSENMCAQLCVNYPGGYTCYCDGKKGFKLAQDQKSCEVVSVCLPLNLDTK
# Assay remarks: ELISA; plate coated with recombinant Protein S heavy chain; 1 mM CaCl2
Report as a plain number; the unit OD is understood.

Given Antibody 23 (antibody, V domains shown, Human variable region with rat Fc) VH: QVQLVQSGAEVKKPGASVKVSCKSSGHTFTGYYMHWVRQAPGQGLEWMGWINPNSGDTNYAQKFQGRVTMTRDTSISTAYMEMSRLRSDDTAVYYCARDSQILWFGELGYWGQGTLVTVSS VL: QAVVTQESALTTSPGETVTLTCRSSTGAVTASNYANWVQEKPDHLFTGLIGSTNNRAPGVPARFSGSLIGDKAALTITGAQTEDEAIYFCALWYSDHFVFGGGTKLTVL , state its recorded Binding to heavy chain (OD). 0.1

Given Antibody 13 (antibody, V domains shown, Human variable region with rat Fc) VH: QVQLVQSGAEVKKPGSSVKVSCKVSGGTFSSYSISWVRQAPGQGLEWMGGIIPIFGTTNYAQKFQGRVTITADESTSTAYMDLSSLKSEDTAMYYCEGGRVGADFDYWGQGTLVTVSS VL: SSDLTQGPAVSVALGQTVRITCQGDSLRNYYASWYQQKPGQAPVPVIYGKNDRPSGIPDRFSGSISGNTASLTITGAQAEDEAHYYCNSRDSSGNHVVFGGGTKLTVL , state its recorded Binding to heavy chain (OD). 1.63

Given Antibody 24 (antibody, V domains shown, Human variable region with rat Fc) VH: QVQLQESGPGLVKPSETLSLTCGVSGGSISSTNWWSWVRQPPGKGLEWIGEIYQTGSTDYDPSLKSRVTISIDKSKNQFSLKLYSVTAADTAVYYCARRFGELDYWGQGTLVTVSS VL: EIVMTQSPATLSVSPGERATLSCRASQSVTSNLAWYQQKPGQAPRLLIYDASTRATGIPARFSGSGSGTEFTLTISSLQSEDFAIYYCQQYNNWPTFGQGTRLEIK , state its recorded Binding to heavy chain (OD). 0.71

Given Antibody 20 (antibody, V domains shown, Human variable region with rat Fc) VH: QVQLQESGPGLVKPSETLSLTCAVSGYSISSGYYWGWIRQPPGKGLDWIGSIYYSGSTYYNPSLKSRVTISVDTSKNQISLKLSSVTAADTAVYYCATTYSDIVTGYYNDAFDIWGQGTMVTVSS VL: EIVMTQSPATLSVSPGERATLSCRASQRINSNLAWYQQKPGQAPRLLIYGASTRATGIPARFSGSGSGTEFTLTISSLQSEDFAAYYCQQYDNWPLTFGGGTKVEIK , state its recorded Binding to heavy chain (OD). 1.54
